# MEASUREMENT NOTES: FIG. 14
# EXPERIMENTAL CONTEXT: C57BL/6, mouse, in vivo, iv, 2 mg/kg
# Description: Table printed on a drawing sheet, FIG. 14 The patent's description of the figure: FIG. 14. SRA3 pharmacokinetic data. PK studies were performed in C57BL/6 mice First reader's note: IV route is given in the head cell of the first column; the plot legend on the same sheet prints IV 2 mg/kg in mouse.

| COMPOUND | MRT, h |
| --- | --- |
| C=C[C@H](C)C[C@@H]1NC(=O)[C@H]([C@H](O)C(C)C)N(C)C(=O)[C@H](C)N(C)C(=O)[C@@H]([C@@H](C)CC)NC(=O)[C@@H]([C@H](O)C(C)C)NC(=O)[C@H]2CCCCN2C(=O)[C@H](C)N(C)C1=O [SRA3] | 7.97 |
